Reported switch fluorescence ratio is given for each of the following sequences.
Test system: ATP;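 also: ATP exposure 15 min at 22 °C before imaging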
Experiment: switch fluorescence ratio, 500 uM ATP over buffer (Cy3 cluster intensity, sum of 5 cycles each) (fold (ratio)); higher = stronger signal-on switching upon ATP binding; sequences stand for … in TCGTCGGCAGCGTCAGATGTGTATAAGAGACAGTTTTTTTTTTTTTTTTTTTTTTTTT…TC
Settings: aptamer strand: ATP DNA aptamer (quencher-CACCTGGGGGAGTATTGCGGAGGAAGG + anchor), 100 nM annealed; ATP concentration: 500 uM

biosequence	switch fluorescence ratio
TAAAAAATAC	1.67
TCAGGTTAGT	1.02
CTATGCTCAC	1.45
CGGTGGGGAT	1.02
ATTAAGCAT	1.04
TAAAAAGTTT	0.997
GCTCACTGTG	1.04
GTTAGACGGT	1.02
AAGGATATCT	0.988
TATTAAGGA	0.976
TTAAAAATGG	1.02
AATGGTGATG	0.99
CCACGAAGAT	1.06
CCTATGGGGT	0.974
ATTGGGCAAT	1.05
GACGTATCGT	0.989
TGGCGAAGGT	0.975
ATTTACACGC	1.02
AGGGGGGGCG	0.975
GCAATTTCAG	1.05
ATCGTAAGGG	0.983
